- system under test: CCR9 (Homo sapiens)
- Construct: chemokine expressing cells (such as THP-1 cells for CCR2 assay or MOLT-4 cells for CCR9 assay)
- test method notes: CCR9 activity in one of the chemotaxis, binding or calcium mobilization assays
- recorded conditions: assay not specified per compound
measured endpoint: IC50

# compound, result
data = [
    ("CC(=O)c1nnc(-c2cc(Cl)c(F)cc2NS(=O)(=O)c2ccc(C(C)(C)C)cc2)n1C", "< 1000 nM"),
    ("COCc1nnc(-c2cc(Cl)ccc2NS(=O)(=O)c2ccc(C(C)(C)C)cc2)n1C(C)C", "< 1000 nM"),
    ("Cc1nnc(-c2c(NS(=O)(=O)c3ccc(C(C)(C)C)cc3)ccc(Cl)c2F)n1C", "< 1000 nM"),
    ("Cc1nnc(-c2cc(Cl)ccc2NS(=O)(=O)c2ccc(C(C)(C)C)cc2)n1C1CCN(C(N)=O)CC1", "< 1000 nM"),
    ("CC(C)(C)c1ccc(S(=O)(=O)Nc2ccc(Cl)cc2-c2nncn2C2CCOC2)cc1 (stereo not drawn)", "< 1000 nM"),
    ("CCc1nnc(-c2cc(C(=O)OC)ccc2NS(=O)(=O)c2ccc(C(C)(C)C)cc2)n1C", "< 1000 nM"),
    ("CC(C)(C)c1ccc(S(=O)(=O)Nc2ccc(Cl)cc2-c2nncn2[C@H]2CCNC2)cc1", "< 1000 nM"),
    ("COCCc1nnc(-c2cc(Cl)ccc2NS(=O)(=O)c2ccc(C(C)(C)C)cc2)n1C", "< 1000 nM"),
    ("CCn1cnnc1-c1c(NS(=O)(=O)c2ccc(C(C)(C)C)cc2)ccc(Cl)c1F", "< 1000 nM"),
    ("Cn1c(-c2cocn2)nnc1-c1cc(Cl)ccc1NS(=O)(=O)c1ccc(C(C)(C)C)cc1", "< 1000 nM"),
    ("CC(=O)NCCn1c(C)nnc1-c1cc(Cl)ccc1NS(=O)(=O)c1ccc(C(C)(C)C)cc1", "< 1000 nM"),
    ("Cc1nnc(-c2cc(Cl)ccc2NS(=O)(=O)c2ccc(C(C)(C)C)cc2)n1C1CCOC1 (stereo not drawn)", "< 1000 nM"),
]

* * *

- system under test: CCR9 (Homo sapiens, UniProt P51686)
- Construct: chemokine expressing cells (such as THP-1 cells for CCR2 assay or MOLT-4 cells for CCR9 assay)
- Sequence (P51686 whole entry): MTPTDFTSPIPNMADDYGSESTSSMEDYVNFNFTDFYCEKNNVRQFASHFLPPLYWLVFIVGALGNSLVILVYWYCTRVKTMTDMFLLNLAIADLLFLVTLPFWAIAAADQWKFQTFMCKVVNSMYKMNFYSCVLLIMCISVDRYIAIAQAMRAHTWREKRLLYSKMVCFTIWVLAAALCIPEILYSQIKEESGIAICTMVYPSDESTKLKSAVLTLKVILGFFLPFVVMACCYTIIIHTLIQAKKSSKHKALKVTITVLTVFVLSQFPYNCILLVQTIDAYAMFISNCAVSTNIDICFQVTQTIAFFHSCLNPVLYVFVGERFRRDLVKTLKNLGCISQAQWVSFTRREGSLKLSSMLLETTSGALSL
- test method notes: CCR9 activity in one of the chemotaxis, binding or calcium mobilization assays
- recorded conditions: assay not specified per compound
- Method: Conventional migration assay was used to determine the efficacy of potential receptor antagonists in blocking migration mediated through chemokines (such as CCR2 or CCR9). […] To quantify cells migrated across the membrane, 5 μL of 7×CyQUANT® solution was added to each well in the lower chamber, and the fluorescence signal measured on a Spectrafluor Plus fluorescence plate reader (TECAN, Durham, N.C.). […]
pIC50: −log10 of the molar value.

# line notation, pIC50
rows = [
    ("CN(C)Cc1nnc(-c2cc(Cl)c(F)cc2NS(=O)(=O)c2ccc(C(C)(C)C)cc2)n1C", "> 6.00"),
    ("Cc1nnc(-c2cc(Cl)ccc2NS(=O)(=O)c2ccc(C(C)(C)C)cc2)n1[C@@H](C)CO", "> 6.00"),
    ("CC(C)(C)c1ccc(S(=O)(=O)Nc2cc(F)c(F)cc2-c2nncn2[C@H]2CCNC2)cc1", "> 6.00"),
    ("Cc1nnc(-c2cc(Cl)ccc2NS(=O)(=O)c2ccc(C(C)(C)C)cc2)n1CC(C)C", "> 6.00"),
]
